- TARGET OR TEST SYSTEM: T1, full length human MSR1 with a C-terminal Myc tag, on HEK293.Myc.hMSR1 cells (human, UniProt P21757 1-451); also: test concentration or dose not given here
- T1 sequence (looked up): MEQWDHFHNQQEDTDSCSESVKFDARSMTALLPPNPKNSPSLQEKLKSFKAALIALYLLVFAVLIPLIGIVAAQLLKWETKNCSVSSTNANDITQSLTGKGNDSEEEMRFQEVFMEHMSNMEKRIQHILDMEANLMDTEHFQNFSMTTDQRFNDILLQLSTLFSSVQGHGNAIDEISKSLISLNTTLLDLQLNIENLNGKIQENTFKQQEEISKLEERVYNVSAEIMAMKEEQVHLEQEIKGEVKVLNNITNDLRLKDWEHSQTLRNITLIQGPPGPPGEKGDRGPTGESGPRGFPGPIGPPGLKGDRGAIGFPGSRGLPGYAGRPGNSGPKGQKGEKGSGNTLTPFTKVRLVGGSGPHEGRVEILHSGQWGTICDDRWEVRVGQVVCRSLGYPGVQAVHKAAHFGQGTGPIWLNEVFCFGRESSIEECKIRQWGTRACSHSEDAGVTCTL
- ASSAY NOTES: cell-based or functional assay
VALUE TYPE: % Inhibition of Dil-Acetylated LDL uptake (%)

{"BINDER": "H2aM21235N (antibody, mouse IgG2a, V domains shown) VH: EVQLVESGGGLVQPGGSLRLSCAASGFTFSDHYMDWVRQAPGKGLEWVGRTRNKANSYTTEYAASVSGRFTISRDDSKNSLYLQMNSLKTEDTAVYYCTRAGIIGTLFDYWGQGTLVTVSS VL: DIQMTQSPSSLSASVGDRVTITCRASQIIGRYLNWFQQKPGKVPKLLIYAASSLQRGVPSRFSGSGSGTDFTLTISSLQPEDFATYYCQQSYNTPPITFGQGTRLEIKR", "SCALE UNIT": "%", "OBSERVED": 24}
{"BINDER": "H2bM21234N (antibody, V domains shown) VH: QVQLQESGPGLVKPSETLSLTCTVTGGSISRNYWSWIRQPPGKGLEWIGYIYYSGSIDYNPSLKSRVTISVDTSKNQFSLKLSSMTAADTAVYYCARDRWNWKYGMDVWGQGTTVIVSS VL: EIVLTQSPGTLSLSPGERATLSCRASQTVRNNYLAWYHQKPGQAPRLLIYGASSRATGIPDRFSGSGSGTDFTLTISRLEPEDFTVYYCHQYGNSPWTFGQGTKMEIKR", "SCALE UNIT": "%", "OBSERVED": 19}
{"BINDER": "H1H27729P-N297Q (antibody, human IgG1, V domains shown, human IgG1 Fc with N297Q) VH: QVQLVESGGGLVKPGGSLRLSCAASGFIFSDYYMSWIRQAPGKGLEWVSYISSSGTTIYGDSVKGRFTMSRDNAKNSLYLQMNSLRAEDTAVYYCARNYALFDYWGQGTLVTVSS VL: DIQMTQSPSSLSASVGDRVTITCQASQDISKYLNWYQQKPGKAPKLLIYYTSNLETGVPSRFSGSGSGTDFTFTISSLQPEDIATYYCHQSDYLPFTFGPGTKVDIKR", "SCALE UNIT": "%", "OBSERVED": 28}
{"BINDER": "H1H27731P-N297Q (antibody, V domains shown, human IgG1 Fc with N297Q) VH: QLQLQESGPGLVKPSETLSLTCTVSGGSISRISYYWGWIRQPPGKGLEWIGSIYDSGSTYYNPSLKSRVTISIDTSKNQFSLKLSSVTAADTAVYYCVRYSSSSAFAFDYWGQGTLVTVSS VL: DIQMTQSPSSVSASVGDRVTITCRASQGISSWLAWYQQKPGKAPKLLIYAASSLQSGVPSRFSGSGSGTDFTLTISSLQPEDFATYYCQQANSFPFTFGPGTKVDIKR", "SCALE UNIT": "%", "OBSERVED": 37}
{"BINDER": "H2aM25695N (antibody, mouse IgG2a, V domains shown, mouse IgG2a Fc) VH: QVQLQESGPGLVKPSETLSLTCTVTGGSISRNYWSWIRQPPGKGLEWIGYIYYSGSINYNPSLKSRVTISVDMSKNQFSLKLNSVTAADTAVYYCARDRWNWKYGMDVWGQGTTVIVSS VL: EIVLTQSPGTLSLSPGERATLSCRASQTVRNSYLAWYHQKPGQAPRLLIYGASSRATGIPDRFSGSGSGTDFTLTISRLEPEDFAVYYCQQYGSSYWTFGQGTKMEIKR", "SCALE UNIT": "%", "OBSERVED": 40}
{"BINDER": "H1H21234N (antibody, human IgG1, V domains shown, original human IgG1 Fc) VH: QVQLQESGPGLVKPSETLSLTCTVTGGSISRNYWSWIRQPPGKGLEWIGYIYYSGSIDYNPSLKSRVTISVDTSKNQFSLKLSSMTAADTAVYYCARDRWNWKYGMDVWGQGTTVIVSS VL: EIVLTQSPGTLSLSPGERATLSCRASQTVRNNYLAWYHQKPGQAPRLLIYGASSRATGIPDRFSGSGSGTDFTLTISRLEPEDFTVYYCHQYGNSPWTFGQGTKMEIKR", "SCALE UNIT": "%", "OBSERVED": 36}
{"BINDER": "H1H27732P-N297Q (antibody, human IgG1, V domains shown, human IgG1 Fc with N297Q) VH: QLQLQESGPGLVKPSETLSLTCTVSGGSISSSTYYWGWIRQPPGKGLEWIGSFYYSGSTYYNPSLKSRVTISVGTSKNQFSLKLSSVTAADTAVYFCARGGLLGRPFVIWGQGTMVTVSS VL: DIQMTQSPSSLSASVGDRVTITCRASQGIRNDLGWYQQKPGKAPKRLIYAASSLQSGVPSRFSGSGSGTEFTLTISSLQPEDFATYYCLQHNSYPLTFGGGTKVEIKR", "SCALE UNIT": "%", "OBSERVED": 62}
